- tested_system: recombinant human protein tyrosine phosphatase 1B (Homo sapiens)
- Construct: purchased UBI
- Sequence (P18031 1-435): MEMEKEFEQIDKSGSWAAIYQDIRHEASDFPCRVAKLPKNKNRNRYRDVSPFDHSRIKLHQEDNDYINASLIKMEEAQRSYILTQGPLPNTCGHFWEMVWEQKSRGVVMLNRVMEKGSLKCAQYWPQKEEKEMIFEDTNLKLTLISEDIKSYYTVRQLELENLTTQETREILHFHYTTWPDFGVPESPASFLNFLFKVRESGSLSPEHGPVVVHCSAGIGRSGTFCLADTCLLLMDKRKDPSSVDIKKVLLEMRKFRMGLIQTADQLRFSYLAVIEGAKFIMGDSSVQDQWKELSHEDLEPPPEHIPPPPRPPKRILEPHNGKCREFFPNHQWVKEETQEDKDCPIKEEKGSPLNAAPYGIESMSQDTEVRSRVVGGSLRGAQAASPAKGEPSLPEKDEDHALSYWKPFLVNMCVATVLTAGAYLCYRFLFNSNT
- assay_protocol: Protein tyrosine phosphatase 1B inhibitory action (malachite green, phosphorylated insulin receptor peptide substrate)
- Format: biochemical
- experimental_conditions: recombinant human PTP1B, 60 min room temperature, absorbance at 650 nm
- Procedure: Preparation of Assay Buffer: 50 mM Tris-HCl buffer (pH 7.5), and 50 mM NaCl and 3 mM dithiothreitol (DTT) were prepared. […] A sample (10 μl) and a substrate (25 μl) prepared as mentioned above were successively added to a 96 well plate, and an enzyme (25 μl) prepared as mentioned above was added and mixed. […] The absorbance at 650 nm was measured on a plate reader, and the protein tyrosine phosphatase 1B inhibitory action of the test compound was evaluated.
Hi there, I'd appreciate the recorded IC50 for every entry that follows.
Numbers only, in µM.

Some solved cases for reference:
CN(Cc1ccc(C(=O)O)cc1)c1nc(-c2ccc(OCc3ccc(C4CCCCC4)cc3)cc2)cs1 [Example 2]; 0.22
CN(Cc1ccc(C(=O)O)cc1)c1nc(-c2ccc(NCc3ccc(C4CCCCC4)cc3)cc2)cs1 [Example 115]; 0.48
CN(Cc1ccc([C@H]2CC[C@H](O)CC2)cc1)c1ccc(-c2csc(N(C)Cc3ccc(C(=O)O)cc3)n2)cc1 [Example 196]; 0.83

Okay, next one:
response.value for CN(Cc1ccc(C2CCCCC2)cc1)c1ccc(-c2csc(N(C)Cc3ccc(C(=O)O)cc3)n2)cc1 [Example 1] (field: IC50) = 0.32

====

Where a name gives a salt, the structure may show the parent alone.
Hi there, I'd appreciate the recorded melting point for every entry that follows.

Some solved cases for reference:
CC(C)(c1ccc(C(=O)O)cc1)c1nc(-c2ccc(OCc3ccc(C4CCCCC4)cc3)cc2)cs1; 219 to 221 °C
CN(CCc1ccc(C(C)(C)C)cc1)c1ccc(-c2csc(N(C)Cc3ccc(C(=O)O)cc3)n2)cc1; 162 °C
O=C(O)c1ccc(N(CC2CCCCC2)c2nc(-c3nc4ccc(OCc5ccc(C(F)(F)F)cc5C(F)(F)F)cc4o3)cs2)cc1; 213 to 214 °C
CC(C)N(c1ccc(C(=O)O)cc1)c1nc(-c2ccc(NC(=O)c3ccc(N4CCOCC4)cc3)cc2)cs1.Cl; 230 °C (dec.)

Lab note: each molecule below needs its melting point filled in.
1. CC(C)N(Cc1ccc(C(=O)O)cc1)c1nc(-c2ccc(OCc3cccc(N4CCCCC4)c3)cc2)cs1 (as salt: hydrochloride) [Example 127, dihydrochloride]
2. CCN(c1ccc(C(=O)O)cc1)c1nc(-c2ccc(NC(=O)c3ccc(C4CCCCC4)cc3)cc2)cs1
3. CN(Cc1ccc(C2CCCCC2)cc1)c1ccc(-c2csc(N(C)Cc3ccc(C(=O)O)cc3)n2)cn1

Output line:
1: 135 to 140 °C; 2: 250 °C (dec.); 3: 157 to 159 °C
